- Test system: HCT-15 colon
- Assay Details: NCI-60 one-dose screen, 48 h (100 = growth as untreated, 0 = no growth, -100 = all killed)
- Condition: 10 µM unless noted
About 83,000 compounds went through this panel and 20% of them were active in at least one assay; those are over-represented in the sample as a whole.

{"columns": ["Molecule", "growth, %"],
 "data": [
  ["CN1CCN(c2ccc3c(c2)nc(NNC(=O)c2ccncn2)c2cccn23)CC1", 25.1],
  ["C=C1C(=O)O[C@@H]2C[C@@H](C)/C=C\\C(=O)[C@](C)(OC(C)=O)C[C@H](OC(=O)/C(C)=C\\C)[C@@H]12", -26],
  ["CN1CCN(c2ccc(C(=O)Nc3cccc(-c4cn(-c5ccc(S(N)(=O)=O)cc5)nn4)c3)cc2C(F)(F)F)CC1", 41.1],
  ["O=S(=O)(NC1CC2CCC1C2)c1ccc2c(c1)C(=NO)c1cc(S(=O)(=O)NC3CC4CCC3C4)ccc1-2 (configuration not stated)", 31.2],
  ["IP(CCCCCCCCCCSc1n(Cc2ccc3ccccc3c2)c(-c2ccccc2)c(-c2ccccc2)[n+]1Cc1ccc2ccccc2c1)(c1ccccc1)(c1ccccc1)c1ccccc1", -68.3],
  ["COc1cc(/C=C/C(=O)c2ccc(N3CCN(C)CC3)cc2)ccc1F", 36.4],
  ["COc1ccc(C2C(C#N)=C(N)Oc3c2sc2ccc(C)cc32)cc1 (configuration not stated)", 19.2],
  ["COC(=O)c1nc(-c2ccc(C)cc2)oc1S(=O)(=O)N1CCN(c2oc(-c3ccccc3)nc2C#N)CC1", 98.6],
  ["COc1cnc2c(c1)C(=O)c1c-2n(CCCNCC2CC2)c(=O)c2cc(F)ccc12", 0.625],
  ["Clc1ccccc1/C=C/c1nn2c(-c3ccncc3)nnc2s1", 96.4],
  ["O=C1C[C@@H](c2ccccc2)Oc2c(Cc3ccccc3O)c(O)c(Cc3cc(Cc4cc(Cc5ccccc5O)ccc4O)ccc3O)c(O)c21", 104],
  ["CN(c1ccc(Cl)cc1)S(=O)(=O)c1ccc(-c2cnc(C3CC3)o2)cc1", 15.6],
  ["CCCCCCNC(=O)Oc1ccc(/C(=C(/C)c2ccc(Cl)cc2)c2ccc(OCCN3CCCC3)cc2)cc1", 0.291],
  ["CN1CCN(Cc2ccc(NC(=O)c3cncc(C#Cc4cnc5ccc(NC6CCOCC6)nn45)c3)cc2C(F)(F)F)CC1", -48.4],
  ["C/C(=N\\NC(=O)CSc1nc2sc3c(c2c(=O)n1-c1ccccc1)CCC(C)C3)c1ccc(Cl)cc1 (configuration not stated)", 25.7],
  ["C=C1C(=O)O[C@@H]2/C=C(/C)C3=CC(=O)[C@@](C)(C[C@H](OC(=O)/C(C)=C\\C)[C@@H]12)O3", -2.86],
  ["O=C(NNc1nc2cc(F)cc(F)c2n2cccc12)c1ccncn1", 25.3]
]}
